Every entry's value here was drawn from ChEMBL document CHEMBL1201862.

- System: A549
- test: NCI tumour cell line growth inhibition, 48 h
The source made the active and inactive calls. Cut-off read from the data, not from the text of the source: active = GI50 up to about 1.1 µM and inactive = higher.
measured-property: GI50

Query string: For CCCCCCCCCC[C@H](O)[C@H](O)CC[C@@H](O)[C@H]1CC[C@@H]([C@H]2CC[C@H](CCCCCCC[C@@H](O)CC3=C[C@H](C)OC3=O)O2)O1 , what is its reported GI50?
Result string: 1.84 µM (inactive)

Query string: Next molecule up: Cc1ccc(C(=O)O)cc1NC(=O)c1cc(/C=C/c2ccccc2)[nH]c(=S)n1
Result string: > 65.8 µM (inactive)

Query string: Next molecule up: N#CC1CCCCC1NC1(C#N)CCCCC1 (configuration not stated)
Result string: > 100 µM (inactive)

Query string: Next molecule up: CC1CN=C(N(Cc2ccccc2)C(=O)Nc2ccc(Cl)c(Cl)c2)S1 (configuration not stated)
Result string: 36.9 µM (inactive)

Query string: Next molecule up: N=C(N)Nc1ncccc1[N+](=O)[O-]
Result string: > 100 µM (inactive)

Query string: Next molecule up: Cc1nc2c(N3CCCC3)nc(N3CCNCC3)nc2nc1NCc1ccccc1
Result string: 3.88 µM (inactive)

Query string: Next molecule up: Oc1cccnc1CN1CCCCC1
Result string: > 100 µM (inactive)

Query string: Next molecule up: COc1ccccc1NC(=O)C(=O)C1C(=O)Nc2ccccc2[S+]1[O-] (configuration not stated)
Result string: > 100 µM (inactive)

Query string: Next molecule up: CCN(CC)CCNc1ccc2ncn3c4c(OC)ccc(OC)c4c(=O)c1c23
Result string: 22.5 µM (inactive)

Query string: Next molecule up: S=c1c2ccccc2c(=S)n2n1CC=CC2
Result string: > 100 µM (inactive)

Query string: Next molecule up: O=C(Nc1ccccc1C(=O)Nc1nccs1)c1ccccc1
Result string: 12.4 µM (inactive)

Query string: Next molecule up: Cc1cc(-c2ccc[nH]2)on1
Result string: > 100 µM (inactive)

Query string: Next molecule up: Oc1cc(CN2COc3ccccc32)c(O)cc1CNC1CCCCC1
Result string: > 100 µM (inactive)

Query string: Next molecule up: O=C(O)c1ccccc1/C=C1\Cc2cc3c(cc2C1=O)CCC3
Result string: 30.1 µM (inactive)

Query string: Next molecule up: O=C1C(Cl)=C(Cl)C(=O)N1c1ccc(Cl)c(Cl)c1Cl
Result string: > 100 µM (inactive)

Query string: Next molecule up: CCOC(=O)Cn1nnc2ccc(Nc3nc4ccccc4nc3C(=O)OCC)cc21
Result string: > 100 µM (inactive)

Query string: Next molecule up: COc1c2c(cc3c1-c1c(cc4c(c1OC)OCO4)C1OC3C(C)C1C)OCO2.COc1cc2c(c(OC)c1OC)-c1c(cc3c(c1OC)OCO3)C1OC2C(C)C1C (configuration not stated)
Result string: 97.5 µM (inactive)

====

- Tested on: OVCAR-8
- test: NCI tumour cell line growth inhibition, 48 h
Calls of active or inactive are those of the source. Rule as the data show it: active = GI50 up to about 1.1 µM and inactive = higher.
Consider the following compounds; for each one, report its GI50.

Query string: Write down the reported GI50 of CN(C)CCCNCc1cccc2ccccc12 , test system: OVCAR-8.
Result string: > 100 µM (inactive)

Query string: Next compound up: CCOC(=O)/C(C#N)=C1/SC(C(=O)N/N=C/c2ccc(OC)cc2)=C(N)N1c1ccccc1
Result string: > 100 µM (inactive)

Query string: Next compound up: CCNC1(c2cccc(C)c2)OC(C)(C)c2cccc3cccc1c23 (stereo unspecified)
Result string: 18.4 µM (inactive)

Query string: Next compound up: O=c1[nH]nc(-c2ccccc2)n1/N=C/c1c[nH]c2ccccc12
Result string: 32.7 µM (inactive)

Query string: Next compound up: CCOC(=O)c1nc2ccccc2nc1Oc1ccc(C#N)cc1
Result string: > 100 µM (inactive)

Query string: Next compound up: C/N=c1/ssc(=S)n1C(C)C
Result string: 25.6 µM (inactive)

Query string: Next compound up: O=C(/C=C/c1cc2ccccc2o1)N1CCN(c2ccccn2)CC1
Result string: > 100 µM (inactive)

Query string: Next compound up: Cc1ccc2cccc(-c3cccc4ccccc34)c2n1
Result string: 22.1 µM (inactive)

Query string: Next compound up: CC(C)N(c1cc2c(cc1F)c(=O)c(C(=O)O)cn2-c1ccc(N2CCN(C)CC2)cn1)C(C)C
Result string: > 100 µM (inactive)

Query string: Next compound up: N/N=C(\c1nc2ccc(Cl)cc2nc1O)C(O)c1ccc(Cl)c(Cl)c1 (stereo unspecified)
Result string: 72.6 µM (inactive)

Query string: Next compound up: c1ccc2c3c([nH]c2c1)[C@H]1C2CCCCN2CN1CC3 (stereo partly specified)
Result string: > 100 µM (inactive)
